B1: TRIM35 (parent)
chain: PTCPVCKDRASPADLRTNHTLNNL

variants of: B1; test: protein stability index of a GFP-peptide fusion (GPS, HEK-293T) (PSI 1-6); higher = more stable; conditions: c terminus: a fixed tail appended;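 also: lentivirally expressed fusions sorted by FACS into six bins by GFP to DsRed ratio, PSI derived from sequencing read proportions per bin multiplied by bin number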
measure: protein stability index
Please reply with the number alone, leaving off any unit.

*Q* Dear colleague, I am looking for the recorded protein stability index of the following variant: L21W
*A* 2.18

*Q* Dear colleague, I am looking for the recorded protein stability index of the following variant: R16G
*A* 2.63

*Q* Dear colleague, I am looking for the recorded protein stability index of the following variant: L21E
*A* 3.59
